- TEST_METHOD_NOTES: T. gondii ME49Luc in HeLa cells, luciferase assay, 72 h, no IFN-y (AID 1259421)
- REPORTED_CONDITIONS: concentration not given here
The campaign covered roughly 6,400 compounds. About 610 (9.5%) were called active. Cut-off read from the data, not from the text of the source: active = activity change below about -70%; inconclusive = no clear call, values can overlap the other calls; inactive = above that. The full list was thinned out, with actives kept by preference. Where a SMILES comes first, the peptide text is derived from it. Bridges are numbered along the chain shown (N, C = ends). [ ]: non-standard residue; d: D form. The star is where a group is joined. ξ: configuration not given here. Heptanoyl(6-Me) = CC(C)CCCCC(=O)*; ξDab = NCCC(N)C(=O)O; ξT = CC(O)C(N)C(=O)O
Labels: active, inactive

[[record]]
compound = "CCCc1ncc(C(=O)O)s1"
assigned_label = "inactive"

[[record]]
compound = "N#C/C(=C/c1ccc(O)c(O)c1)C(N)=O"
assigned_label = "inactive"

[[record]]
compound = "CC(C)CCCCC(=O)NC(CCN)C(=O)NC(C(=O)NC(CCN)C(=O)NC1CCNC(=O)C(C(C)O)NC(=O)C(CCN)NC(=O)C(CCN)NC(=O)[C@H](CC(C)C)NC(=O)[C@@H](CC(C)C)NC(=O)C(CCN)NC1=O)C(C)O (stereo partly drawn) ({Heptanoyl(6-Me)}-[ξDab][ξT][ξDab][ξDab][ξDab][dL]L[ξDab][ξDab][ξT]; lactam 4-C)"
assigned_label = "inactive"

[[record]]
compound = "OC1C(O)C(O)C(O)C(O)C1O (centres undefined)"
assigned_label = "inactive"

[[record]]
compound = "c1cc(-c2cnn3cc(-c4ccc(OCCN5CCCCC5)cc4)cnc23)ccn1"
assigned_label = "inactive"

[[record]]
compound = "COc1ccc(-c2coc3cc(O)ccc3c2=O)c(OC)c1"
assigned_label = "inactive"

[[record]]
compound = "CCN(CC)CCOCCOC(=O)C(CC)(CC)c1ccccc1"
assigned_label = "inactive"

[[record]]
compound = "O=C(O)CC(O)(CC(=O)[O][Bi]1[O]C(=O)CC(O)(CC(=O)O)C(=O)[O]1)C(=O)O (centres undefined)"
assigned_label = "inactive"

[[record]]
compound = "O=C1[C@@H](Cc2ccc(O)cc2)N2C(=O)CCN(C(=O)NCc3ccccc3)[C@H]2CN1Cc1cccc2ccccc12"
assigned_label = "inactive"

[[record]]
compound = "O=C(O)CCc1c(C(=O)O)[nH]c2cc(Cl)cc(Cl)c12"
assigned_label = "inactive"

[[record]]
compound = "CC(C)=CCC[C@](C)(O)[C@H]1CC[C@]2(C)[C@@H]1[C@H](O)C[C@@H]1[C@@]3(C)CC[C@H](O)C(C)(C)[C@@H]3[C@@H](O)C[C@]12C"
assigned_label = "inactive"

[[record]]
compound = "CC(=O)c1ccc(NS(C)(=O)=O)c(Oc2ccc(F)cc2F)c1"
assigned_label = "inactive"

[[record]]
compound = "CC(C)[C@@H](CS(=O)(=O)C(C)C)N1C(=O)[C@@](C)(CC(=O)O)C[C@H](c2cccc(Cl)c2)[C@H]1c1ccc(Cl)cc1"
assigned_label = "inactive"

[[record]]
compound = "Cc1nc2c(-c3cnc(N)nc3)nc(N3CCOCC3)nc2n1C(C)C"
assigned_label = "inactive"

[[record]]
compound = "Cc1ccc(S(=O)(=O)Nc2nc3ccccc3nc2Nc2ccc3nsnc3c2)cc1"
assigned_label = "inactive"

[[record]]
compound = "CC(C)(C)C1CCC(CC2C(=O)C(=O)c3ccccc3C2=O)CC1 (centres undefined)"
assigned_label = "active"

[[record]]
compound = "N[C@H](C(=O)O)[C@H](O)c1ccc(O)c(O)c1"
assigned_label = "inactive"

[[record]]
compound = "NC(N)=NC(N)=NCCc1ccccc1"
assigned_label = "inactive"

[[record]]
compound = "CCOCCn1c(N2CCCN(C)CC2)nc2ccccc21"
assigned_label = "inactive"

[[record]]
compound = "COc1c(O)cc2c(c1O)[C@H]1O[C@H](CO)[C@@H](O)[C@H](O)[C@@H]1OC2=O"
assigned_label = "inactive"

[[record]]
compound = "O=c1cc[nH]c2cc(Cl)ccc12"
assigned_label = "inactive"

[[record]]
compound = "C=C[C@@](C)(O)CCC1C(=C)CCC2[C@@](C)(CO)CCC[C@]12C (some centres undefined)"
assigned_label = "inactive"

[[record]]
compound = "CC(=O)OCCN1C(=O)c2c(C)nc3ccc(S(=O)(=O)N4CCOCC4)cc3c2C1=O"
assigned_label = "inactive"

[[record]]
compound = "COC(=O)C[C@H]1C(C)(C)C(=O)[C@@H]2CC3C4=CC(=O)O[C@@H](c5ccoc5)[C@]4(C)CCC3[C@@]1(C)C2=O (some centres undefined)"
assigned_label = "inactive"

[[record]]
compound = "COc1ccc(C2CC(c3c(O)cc(C)oc3=O)=NCCS2)c(OC)c1 (centres undefined)"
assigned_label = "inactive"

[[record]]
compound = "C#Cc1cnc2[nH]c(=O)n(C(CC)CC)c2n1"
assigned_label = "inactive"

[[record]]
compound = "COc1ncc(-c2ccc3nccc(-c4ccnnc4)c3c2)cc1NS(=O)(=O)c1ccc(F)cc1F"
assigned_label = "active"

[[record]]
compound = "CC1=C(/C=C/C(C)=C/C=C/C(C)=C/C=O)C(C)(C)CCC1"
assigned_label = "inactive"

[[record]]
compound = "CCCCCCCCCCCCCCCCCC(=O)OCC(O)CO (centres undefined)"
assigned_label = "inactive"

[[record]]
compound = "COc1cccc(C=NC=Nc2cccc(OC)c2)c1"
assigned_label = "inactive"

[[record]]
compound = "C[C@H]1OC(O)[C@H](O)[C@H](O)[C@H]1O (some centres undefined)"
assigned_label = "inactive"

[[record]]
compound = "NC(C(=O)O)[C@@H]1CC(Cl)=NO1 (some centres undefined)"
assigned_label = "active"

[[record]]
compound = "O=C1c2ccccc2C(=O)C1c1ccccc1"
assigned_label = "inactive"

[[record]]
compound = "COc1cc(/C=C/C(=O)N2CCN(CC(=O)NC(C)C)CC2)cc(OC)c1OC"
assigned_label = "inactive"

[[record]]
compound = "CC[C@@H]1C(=O)N(C)c2cnc(Nc3ccc(C(=O)NC4CCN(C)CC4)cc3OC)nc2N1C1CCCC1"
assigned_label = "inactive"

[[record]]
compound = "O=C(CS(=O)Cc1ccco1)NC/C=C\\COc1cc(CN2CCCCC2)ccn1 (centres undefined)"
assigned_label = "inactive"

[[record]]
compound = "CC(C)CCN1c2nc(Nc3cc(F)c(O)c(F)c3)ncc2N(C)C(=O)C1C (centres undefined)"
assigned_label = "active"

[[record]]
compound = "CCNC(=O)CCC/C=C\\C[C@@H]1[C@@H](/C=C/C(O)CCc2ccccc2)[C@H](O)C[C@@H]1O (some centres undefined)"
assigned_label = "inactive"

[[record]]
compound = "COc1ccc(/C=C/c2cc(O)cc(O[C@@H]3O[C@H](CO)[C@@H](O)[C@H](O)[C@H]3O)c2)cc1"
assigned_label = "inactive"


###

# activity change, negative = inhibition listing for each entry below
- TEST_METHOD_NOTES: T. gondii ME49Luc in HeLa cells, luciferase assay, 72 h, no IFN-y (AID 1259421)
- REPORTED_CONDITIONS: active compounds read low, concentration not given here
The campaign covered roughly 6,400 compounds. About 610 (9.5%) were called active. The list comes from a sample in which actives are over-represented; it also holds close analogues and randomly drawn compounds.
RECORDED_METRIC: activity change, negative = inhibition (%)

[[record]]
molecule = "C[C@H](NC(=O)C(C)(C)Oc1ccc(C(F)(F)F)cn1)[C@@H](Cc1ccc(Cl)cc1)c1cccc(C#N)c1"
unit_of_measure = "%"
measured = -17.6

[[record]]
molecule = "C#C[C@]1(O)CC[C@H]2[C@@H]3CCc4cc(OC)ccc4[C@H]3CC[C@@]21C"
unit_of_measure = "%"
measured = 9.24

[[record]]
molecule = "CC1(C)CC(=O)c2c(C(F)(F)F)nn(-c3ccc(C(N)=O)c(NC4CCC(O)CC4)c3)c2C1 (stereo not drawn)"
unit_of_measure = "%"
measured = -81.9

[[record]]
molecule = "CN1C/C=C/CCOc2cccc(c2)-c2ccnc(n2)Nc2cccc(c2)C1"
unit_of_measure = "%"
measured = -90

[[record]]
molecule = "C#C[C@]1(O)CCC2C3CCc4cc(OC5CCCC5)ccc4C3CC[C@@]21C (stereo partly drawn)"
unit_of_measure = "%"
measured = 33.4

[[record]]
molecule = "C=C1CCC2C(CC2(C)C)C(=O)CCC1O (stereo not drawn)"
unit_of_measure = "%"
measured = 4.7

[[record]]
molecule = "CN(C)CCCc1cc(C(=O)Nc2ccc(-c3ccncc3)cc2)ccc1O"
unit_of_measure = "%"
measured = 4.74

[[record]]
molecule = "CC1(CN)Cc2ccccc2C1"
unit_of_measure = "%"
measured = 26


###

- TEST_METHOD_NOTES: T. gondii ME49Luc in HeLa cells, luciferase assay, 72 h, no IFN-y (AID 1259421)
- REPORTED_CONDITIONS: concentration not given here
Screen size: about 6,400 compounds; about 610 (9.5%) were called active. Rule as the data show it: active = activity change below about -70%; inconclusive = no clear call, values can overlap the other calls; inactive = above that. For the sample, actives were picked, then their nearest neighbours and some compounds at random.
Labels: true (1) (active), false (0) (inactive)

[[record]]
compound_structure = "COc1ccc(/C=C/C(=O)c2cc(O)ccc2O)cc1"
assigned_label = "false (0)"

[[record]]
compound_structure = "O=C(O)c1ccc(N2C(=O)/C(=C/c3ccc(-c4ccc([N+](=O)[O-])cc4)o3)C=C2c2ccccc2)cc1"
assigned_label = "false (0)"

[[record]]
compound_structure = "CC[C@H](NC(C)C)[C@H](O)c1ccc(O)c2[nH]c(=O)ccc12"
assigned_label = "false (0)"

[[record]]
compound_structure = "CCCCC[C@@H](O)[C@H]1C(=O)O[C@H](C)[C@@H](O)/C=C/C=C/C=C/C=C/C=C(\\C)[C@@H](O)C[C@H](O)C[C@H](O)C[C@H](O)C[C@H](O)C[C@H](O)C[C@@H]1O"
assigned_label = "false (0)"

[[record]]
compound_structure = "CN1CCc2nc(C(=O)N[C@H]3C[C@H](C(=O)N(C)C)CC[C@@H]3NC(=O)C(=O)Nc3ccc(Cl)cn3)sc2C1"
assigned_label = "false (0)"

[[record]]
compound_structure = "COc1cc(OC)c2c(OC)c(-c3ccc4c(c3)OCO4)c(=O)oc2c1"
assigned_label = "true (1)"

[[record]]
compound_structure = "CNc1ncnc2c1ncn2[C@@H]1O[C@H](CO)[C@@H](O)[C@H]1O"
assigned_label = "false (0)"

[[record]]
compound_structure = "c1ccc(CNc2nc(NCc3ccccc3)c3ccccc3n2)cc1"
assigned_label = "true (1)"

